Where these numbers come from: PubChem BioAssay AID248

T/C by entry:
# Tested on: L1210 leukemia ip in BDF1 mice, survival T/C
# ASSAY_NAME: NCI In Vivo Anticancer Drug Screen. Data for tumor model L1210 Leukemia (intraperitoneal) in B6D2F1 (BDF1) mice
# TEST_CONTEXT: endpoint: mean survival time; dose: 200.0 mg/kg/injection; schedule: Q01DX001 (ip); vehicle: saline; higher = longer survival
Toxic doses and inconclusive results are not listed.

In [3]: df
Out[3]:
                                   molecule  measured_attribute          observed
0           OCCN(CCO)CCN1c2ccccc2Sc2ccccc21                 T/C  112 % of control
1       NNC(=O)C1CC12CC2 (stereo not drawn)                 T/C  103 % of control
2  c1ccc(C(=NC(c2ccccc2)c2ccccc2)c2ccccc2)cc1                 T/C   96 % of control
3               CCOC(=O)CNS(=O)(=O)c1ccccc1                 T/C  101 % of control

The record that follows has no T/C shown yet.
GET /values?readout=T/C&item= `NC(=S)N/N=C/c1ccccc1S(=O)(=O)O`
94 % of control
